target: SIK2 (human) (UniProt Q9H0K1)
Sequence (Q9H0K1 whole entry, looked up): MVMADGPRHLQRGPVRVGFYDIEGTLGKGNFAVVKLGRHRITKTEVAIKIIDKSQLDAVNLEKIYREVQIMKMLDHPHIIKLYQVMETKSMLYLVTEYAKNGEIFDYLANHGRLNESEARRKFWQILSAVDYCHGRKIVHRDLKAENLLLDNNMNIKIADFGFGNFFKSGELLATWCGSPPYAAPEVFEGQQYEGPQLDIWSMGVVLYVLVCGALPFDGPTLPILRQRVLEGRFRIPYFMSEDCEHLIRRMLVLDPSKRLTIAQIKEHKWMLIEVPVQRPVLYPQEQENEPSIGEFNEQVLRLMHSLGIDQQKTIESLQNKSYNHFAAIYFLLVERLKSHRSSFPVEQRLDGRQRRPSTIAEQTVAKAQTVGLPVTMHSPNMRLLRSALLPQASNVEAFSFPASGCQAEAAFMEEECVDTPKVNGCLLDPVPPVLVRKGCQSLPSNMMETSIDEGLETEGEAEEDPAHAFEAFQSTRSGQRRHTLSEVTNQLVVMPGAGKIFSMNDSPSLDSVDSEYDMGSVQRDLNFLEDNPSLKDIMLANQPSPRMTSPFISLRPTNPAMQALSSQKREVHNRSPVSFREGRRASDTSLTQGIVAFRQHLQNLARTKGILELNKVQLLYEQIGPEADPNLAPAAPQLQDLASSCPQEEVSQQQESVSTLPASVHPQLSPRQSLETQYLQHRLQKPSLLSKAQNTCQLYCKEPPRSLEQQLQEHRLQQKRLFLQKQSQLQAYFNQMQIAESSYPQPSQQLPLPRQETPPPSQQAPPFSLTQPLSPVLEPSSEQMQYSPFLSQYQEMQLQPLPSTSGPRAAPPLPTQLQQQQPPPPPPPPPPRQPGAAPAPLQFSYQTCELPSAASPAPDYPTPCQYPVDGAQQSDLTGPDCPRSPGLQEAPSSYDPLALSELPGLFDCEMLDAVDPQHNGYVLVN
test: KINOMEscan competition binding
condition-info: compound 10.0 µM

>  <compound>
C=CC(=O)Nc1cc(NC(=O)c2ccc(C)c(NC(=O)c3ccno3)c2)cc(C(F)(F)F)c1

>  <kinase still bound, per cent of control>
100%

$$$$
>  <compound>
Nc1ccc(-c2ccc3ncc4ccc(=O)n(-c5cccc(C(F)(F)F)c5)c4c3c2)cn1

>  <kinase still bound, per cent of control>
73%

$$$$
>  <compound>
CCCS(=O)(=O)Nc1ccc(F)c(C(=O)c2c[nH]c3ncc(-c4ccc(Cl)cc4)cc23)c1F

>  <kinase still bound, per cent of control>
61%

$$$$
>  <compound>
Cc1ccc(C(=O)Nc2cccc(C(F)(F)F)c2)cc1Nc1cncc(C(N)=O)c1

>  <kinase still bound, per cent of control>
100%

$$$$
>  <compound>
COc1cc(C(=O)NC2CCN(C)CC2)ccc1Nc1ncc2c(n1)N(C1CCCC1)C(C)CC(=O)N2C (centres undefined)

>  <kinase still bound, per cent of control>
100%

$$$$
>  <compound>
O=C(NOC[C@H](O)CO)c1ccc(F)c(F)c1Nc1ccc(I)cc1F

>  <kinase still bound, per cent of control>
92%

$$$$
>  <compound>
N#Cc1c(NC(=O)c2cccc3ccccc23)sc2c1CCCC2

>  <kinase still bound, per cent of control>
78%

$$$$
>  <compound>
CC[C@@H]1C(=O)N(C)c2cnc(Nc3ccc(C(=O)NC4CCN(C)CC4)cc3OC)nc2N1C1CCCC1

>  <kinase still bound, per cent of control>
100%

$$$$
>  <compound>
Cc1cc([C@@H](C)Nc2ccccc2C(=O)O)c2nc(N3CCOCC3)cc(=O)n2c1

>  <kinase still bound, per cent of control>
100%

$$$$
>  <compound>
Cn1c(=O)n(-c2ccc(C(C)(C)C#N)cc2)c2c3cc(-c4cnc5ccccc5c4)ccc3ncc21

>  <kinase still bound, per cent of control>
100%

$$$$
>  <compound>
Cc1ccc2nc(NCCN)c3ncc(C)n3c2c1

>  <kinase still bound, per cent of control>
82%

$$$$
>  <compound>
C[C@@H](Oc1cc(-n2cnc3ccc(CN4CCN(C)CC4)cc32)sc1C(N)=O)c1ccccc1C(F)(F)F

>  <kinase still bound, per cent of control>
61%

$$$$
>  <compound>
CCOc1cc2ncc(C#N)c(Nc3ccc(OCc4ccccn4)c(Cl)c3)c2cc1NC(=O)/C=C/CN(C)C

>  <kinase still bound, per cent of control>
58%

$$$$
>  <compound>
COc1cc(N2CCN(C)CC2)ccc1Nc1nc(N)c(C(=O)c2c(Cl)cccc2Cl)s1

>  <kinase still bound, per cent of control>
100%

$$$$
>  <compound>
OCCCNc1cc(-c2ccnc(Nc3cccc(Cl)c3)n2)ccn1

>  <kinase still bound, per cent of control>
100%

$$$$
>  <compound>
Cc1ccc(NC(=O)c2cccc(C(C)(C)C#N)c2)cc1Nc1ccc2ncn(C)c(=O)c2c1

>  <kinase still bound, per cent of control>
77%

$$$$
>  <compound>
CCN1CCN(Cc2ccc(Nc3ncc4c(n3)N(C)c3ccccc3C(=O)N4C)cc2C(F)(F)F)CC1

>  <kinase still bound, per cent of control>
24%

$$$$
>  <compound>
O=C1Nc2ccc(I)cc2/C1=C/c1cc(Br)c(O)c(Br)c1

>  <kinase still bound, per cent of control>
84%

$$$$
>  <compound>
COc1cc(C(=O)NC2CCN(C)CC2)ccc1Nc1ncc2c(n1)N(C1CCCC1)CCC(=O)N2C(C)C

>  <kinase still bound, per cent of control>
100%

$$$$
